Numbers sourced from a melting point compilation (Tetko et al.; mined from patent text by program, amines drawn as free bases though some values may be those of a salt).

mol: O=[N+]([O-])c1cc(S(=O)(=O)N(CCO)CCO)sc1Cl
melting point (°C): 100

mol: CCOC(=O)N1CCC(Nc2nc3cncnc3n2Cc2ccccc2)CC1
melting point (°C): 157

mol: CC(C)(C#N)c1c(Cl)cc(-n2ncc(=O)[nH]c2=O)cc1Cl
melting point (°C): 180

mol: CCCCNC(=O)Oc1cccc(NC(=O)CC(=O)CCC)c1
melting point (°C): 123

====

compound: CCCCC1=NC2(CCCC2)C(=O)N1Cc1ccc(-c2ccccc2S(=O)(=O)Nc2onc(C)c2C)c(CCCC)c1
melting point: 58 to 61 °C

compound: CCn1c(SC)cc2ccccc2c1=O
melting point: 80 to 82 °C

compound: CCOC(=O)C1(C(=O)Nc2ccc(C(F)(F)F)cc2)CC1
melting point: 80.5 to 82 °C

compound: COc1ccc(C(Cc2ccc(NC(=O)OC(C)(C)C)cc2)c2ccccc2)cc1OC1CCCC1 (centres undefined)
melting point: 123 °C

compound: Cc1cc2c(s1)Oc1ccc(Cl)cc1NC2=O
melting point: 250 to 253 °C

compound: OCCCc1ccc(Nc2c(-c3nnc(NCCN4CCOCC4)o3)ccc(F)c2F)c(F)c1
melting point: 102 to 106 °C

compound: COC(=O)CCCc1cc2nc(Cl)ccc2n1S(=O)(=O)c1cccc(C(C)C)c1
melting point: 92 °C

compound: CCOC(=O)C(C(=O)OCC)c1ccc(NC(=O)c2cc3c(n(CC4CCCCC4)c2=O)CCCCCC3)c(C(F)(F)F)c1
melting point: 160 to 162 °C

compound: CC1c2ccc(F)n2-c2cc(F)c(F)cc2N1S(=O)(=O)c1ccc(O)cc1 (centres undefined)
melting point: 184 to 189 °C

====

Recorded melting point values for a group of molecules are listed next.
endpoint name: melting point

molecule: CCn1nnn(CCN2CCC(=C3c4sccc4CCn4ccnc43)CC2)c1=O
result: 175 °C

molecule: CC(=O)c1cccc2cc3cccc(C(C)=O)c3cc12
result: 178 to 181 °C

molecule: O=C(O)c1ccc(Nc2noc(C(F)(F)F)n2)cc1
result: 244 to 246 °C

molecule: CC(C)c1cc(OCC(=O)N(Cc2ccccc2)Cc2ccccc2)cc2c1C(=O)N(COC(=O)c1c(Cl)cccc1Cl)S2(=O)=O
result: 110 to 112 °C

molecule: CC(C)(C)OC(=O)COc1cc(NC(=O)OC(C)(C)C)c(NC(=O)CC(=O)c2cccc(C#N)c2)cc1C#Cc1ccccc1
result: 95 °C

molecule: COc1ccc(-c2nc(N)ncc2-c2ccc(=O)n(C)n2)cc1OC
result: 232 °C

molecule: Cc1cc(C=O)ccc1C(=O)NCc1ccccn1
result: 79.5 to 83 °C

molecule: O=C(O)/C=C/n1cnc2ccccc2c1=O
result: 250 to 254 °C

molecule: O=C(Nc1ccc(Oc2ccc(N3CCC(O)CC3)cc2)cc1)c1ccc(Cl)c(Cl)c1
result: 178 to 180 °C

molecule: NC(=O)Cc1c(-c2ccccc2)nn(-c2ccccc2)c1-c1ccccc1
result: 123 to 124 °C

molecule: CC1(C)C=C(N2CCCCC2=O)c2cc(C#N)ccc2O1
result: 162 to 163 °C

molecule: CC1(C)C2CC[C@@]1(C)C(C(=O)N1C(=O)OC(C#CC3CC3)(C(F)(F)F)c3cc(Cl)ccc31)C2 (stereo not given in full)
result: 164 to 165 °C

molecule: CC(C)N1CNS(=O)(=O)c2sc(Cl)cc21
result: 100 to 102 °C

molecule: CC(=O)NCc1cccc(Nc2nccc(-c3sc(C)nc3C)n2)c1
result: 206 to 207 °C

molecule: CCC(CC)c1nnc(S)n(N)c1=O
result: 162 to 164 °C

molecule: O=C(c1ccccc1)c1cccc2c1CCC2C(=O)O (stereo not given)
result: 100 to 102 °C

molecule: CC(=O)Nc1ccc(NC(=O)NC23CC4CC(CC(C4)C2)C3)cn1
result: 252 to 254 °C

molecule: CCOC(=O)c1cn(-c2nc(NC(C)(C)C)c(F)cc2Cl)c2c(Cl)c(F)c(F)cc2c1=O
result: 210 to 213 °C

molecule: CCc1cccc(CC(=O)O)c1OCCCc1cn(-c2ccc(Cl)cn2)nc1C(CC)CC
result: 114 to 115 °C

molecule: CCc1c(NC(=O)c2ccc(-c3ccc(F)cc3)cc2)ccc2cc(CN3CCCC3)cnc12
result: 258 to 260 °C

====

Reported values of melting point for individual entries

compound: O=C(O)CCCc1cc2nc(Cl)ccc2n1S(=O)(=O)c1ccc(Cl)cc1Cl
melting point: 154 to 155 °C
//
compound: c1ccc(P(CC[Si](c2ccccc2)(c2ccccc2)c2ccccc2)c2ccccc2)cc1
melting point: 128 to 131 °C
//
compound: O=C1NC2C(CC(O)C(O)C2O)c2cc3c(c(O)c21)OCO3 (stereo unspecified)
melting point: 182 °C
//
compound: CCc1cn2ccccc2c1S(=O)(=O)c1ccc(O)c(C)c1
melting point: 214 °C
//
compound: Cn1c(CO)ncc(OCc2ccccc2)c1=O
melting point: 83 to 84 °C
//
compound: C=CCN1CCC23c4c5ccc(O)c4OC2C(C)C(=NO)CC3(O)C1C5 (stereo unspecified)
melting point: 128 to 129 °C
//
compound: COc1cccnc1C(c1cc(F)ccc1F)S(=O)(=O)c1ccc(Cl)cc1 (stereo unspecified)
melting point: 184 to 185 °C
//
compound: C=COC(=O)N1C[C@@H]2SCCC(c3ccccc3)(c3ccccc3)[C@@H]2C1 (racemic)
melting point: 160 °C
//
compound: CC(C)(C)OC(=O)N(CC(=O)O)CC(=O)O
melting point: 135 to 137 °C
//
compound: O=C(O)c1cn(C2CC2)c2c(Cl)c(N3CC4CCCC3CN4)c(F)cc2c1=O (stereo unspecified)
melting point: 217 to 220 °C
//
compound: CNC(=O)c1ccc(N2CCN(Cc3cc(C)c4c(c3)NC(=O)C(C)O4)CC2)c(Cl)c1 (stereo unspecified)
melting point: 232 °C
//
compound: O=C(c1ccccc1)c1cnn2c1NCCC2
melting point: 173 to 174 °C
//
compound: CC1(C)C=NC(CC(=O)O)(NC(c2ccccc2)(c2ccccc2)c2ccccc2)S1 (stereo unspecified)
melting point: 180 to 182 °C
//
compound: CCCc1cc(C(O)=S)cc([N+](=O)[O-])c1-c1ccccc1
melting point: 178 to 180 °C
//
compound: O=C1Nc2cccnc2N(C(=O)NCCN2CCCCC2CN2CCOCC2)c2ccccc21 (stereo unspecified)
melting point: 167 °C
//
compound: CC(C)(C)OC(=O)NCCOc1noc2ccc(Cl)cc12
melting point: 106 to 107 °C
//
compound: Cc1coc(N2CCCC2=O)n1
melting point: 116 °C
//
compound: COC1=NS(=O)(=O)N(C)C(Oc2ccc([N+](=O)[O-])cc2)=N1
melting point: 220 to 221 °C
//
compound: CC(=O)OCCN1CCN(C)c2cc(Nc3ncc(Cl)c(N[C@@H]4CCCC[C@H]4NS(C)(=O)=O)n3)ccc2C1
melting point: 110 to 142 °C
//
compound: COC(=O)c1sccc1S(=O)(=O)Nc1onc(C)c1Br
melting point: 188 to 194 °C
//
compound: COCCOCc1c(CN(C)CC(O)c2cccc(N)c2)sc2c(=O)c(C(=O)NCc3ccc(Cl)cc3)cn(C)c12 (stereo unspecified)
melting point: 128 to 131 °C
//
compound: Cc1nc(O)c([N+](=O)[O-])c(O)n1
melting point: > 300 °C
//
compound: c1ccc(-c2ccc(CCN3CCN(c4ccccc4)CC3)s2)cc1
melting point: 124 °C
//
compound: O=C(c1[nH]c2ccccc2c1Sc1ccccn1)N1CCCC1
melting point: 211 to 213 °C
//
compound: CCOC(=O)C=Cc1ccc(CCNS(=O)(=O)CCc2ccc(Cl)cc2)cc1
melting point: 91 to 92 °C
//
compound: c1ccc(C2CCCC2OCC2CO2)cc1 (stereo unspecified)
melting point: 31 °C
//
compound: O=C(O)CCNCCn1nc(-c2c(-c3ccccc3)nn3ccccc23)ccc1=O
melting point: 230 to 232 °C
//
compound: O=C(O)c1ccc(CCCC2SCC(=O)N2CCC2(O)CCCCC2)cc1 (stereo unspecified)
melting point: 147 to 148 °C
//
compound: COc1ccc2ccc3c(c2c1)CC(C(=O)O)CO3 (stereo unspecified)
melting point: 165 °C
//
compound: COC(=O)c1ccc(Cc2cccc3ccc(C(N)=O)cc23)c(OC)c1
melting point: 215 to 216 °C
//
compound: COc1ccc(S(=O)(=O)Nc2ccccc2/C=C/c2ccncc2)cc1
melting point: 207 to 209 °C
//
compound: COc1cc(C)c(S(=O)(=O)N(C)C)cc1[N+](=O)[O-]
melting point: 130 to 132 °C
//
compound: COc1cc(Nc2c(C#N)cnc3cc(OCC4CCCCO4)c(OC)cc23)c(Cl)cc1Cl (stereo unspecified)
melting point: 193 to 196 °C
//
compound: COC(=O)CCc1cc2nc(Cl)ccc2n1S(=O)(=O)c1ccc2c(c1)CCN2C(C)=O
melting point: 66 °C
//
compound: C#Cc1c(C#N)nn(-c2c(Cl)cc(C(F)(F)F)cc2Cl)c1Br
melting point: 134 to 135 °C
//
compound: CC(C)Nc1c(-c2c(F)cc(F)cc2F)c(F)nc2nccnc12
melting point: 127 to 128 °C
//
compound: Cc1c(CCCCCCCCCCCC(=O)O)cccc1C(=O)c1ccc(Cl)cc1
melting point: 79 °C
//
compound: Cn1nnnc1-c1ccc2c(c1)S(=O)(=O)c1ccccc1C2=O
melting point: 270 to 271 °C
//
compound: C=CCc1cc(C=CNC(C)=O)ccc1OCC1CO1 (stereo unspecified)
melting point: 135 to 136 °C
//
compound: CCOc1c(NCc2c(C)cc(C)cc2Cl)c(=O)c1=O
melting point: 292 to 294 °C
//
compound: CCCCN=C1c2ccccc2CCc2c1nc1c(cnn1CC)c2NCCCC
melting point: 124 to 125 °C
